IC50 tested on Lysine-specific histone demethylase 1A (Homo sapiens, UniProt O60341): recorded values
parameter: IC50 (µM)

{"compound": "O=S(=O)(Oc1cccnc1Cl)C1CC2OC1C(c1ccc(O)cc1)=C2c1ccc(O)cc1 (centres undefined)", "IC50 [µM]": 7.13}
{"compound": "O=S(=O)(Oc1cccc(Cl)n1)C1CC2OC1C(c1ccc(O)cc1)=C2c1ccc(O)cc1 (centres undefined)", "IC50 [µM]": 4.08}

A = O=C(Oc1cccnc1Cl)C1CC2OC1C(c1ccc(O)cc1)=C2c1ccc(O)cc1 (centres undefined)
B = O=S(=O)(Oc1cccc(Br)n1)C1CC2OC1C(c1ccc(O)cc1)=C2c1ccc(O)cc1 (centres undefined)
Exam item: In terms of reported IC50, does A or B have the smaller number? // output: label of the selected item
Marked response: B
(B: 5.92 µM, A: 17.4 µM)

From: ChEMBL document CHEMBL4765290
